Target: T1, human PCSK9 (proprotein convertase subtilisin kexin type 9) (human, UniProt Q8NBP7 31-692)
T1 construct: immobilized directly (ProteOn), biotinylated (Octet) or in solution, according to the assay; also called hPCSK9; PCSK9-AF647 (labelled form)
Assay: PCSK9:EGFA FRET, competitor EGFA peptide
Property: EC50

[
  {
    "Binder": "2382D05 (designed binder) MGVSDVPRDLEVVAATPTSLLISWDAPADGGYGYYRITYGETGGNSPVQEFTVPVSKGTATISGLKPGVDYTITVYAVEFDFPGAGYYHRPISINYRTEIDKPSQHHHHHH",
    "Result": "2.6 nM"
  },
  {
    "Binder": "1922G04 (designed binder, also called ATI001057; ATI-1057) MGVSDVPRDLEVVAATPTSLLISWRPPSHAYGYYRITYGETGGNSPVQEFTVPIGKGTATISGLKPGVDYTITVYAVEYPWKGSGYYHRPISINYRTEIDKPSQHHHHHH",
    "Result": "1.2 nM"
  },
  {
    "Binder": "2012A04 (designed binder) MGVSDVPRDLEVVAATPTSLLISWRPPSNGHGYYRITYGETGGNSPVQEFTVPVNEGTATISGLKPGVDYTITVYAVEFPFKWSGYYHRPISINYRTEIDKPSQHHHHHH",
    "Result": "2.1 nM"
  },
  {
    "Binder": "2382E05 (designed binder) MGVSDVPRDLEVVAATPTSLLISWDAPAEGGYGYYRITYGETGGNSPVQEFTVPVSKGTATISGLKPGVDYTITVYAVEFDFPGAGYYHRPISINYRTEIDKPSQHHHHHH",
    "Result": "2.8 nM"
  },
  {
    "Binder": "2382B10 (designed binder) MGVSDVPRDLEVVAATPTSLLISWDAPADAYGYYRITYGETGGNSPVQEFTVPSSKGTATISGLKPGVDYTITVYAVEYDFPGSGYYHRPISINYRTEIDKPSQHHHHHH",
    "Result": "3 nM"
  },
  {
    "Binder": "2382B09 (designed binder) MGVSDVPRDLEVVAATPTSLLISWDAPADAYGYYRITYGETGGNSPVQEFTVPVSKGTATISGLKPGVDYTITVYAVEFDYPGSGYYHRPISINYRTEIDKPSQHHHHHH",
    "Result": "3.8 nM"
  },
  {
    "Binder": "2381F11 (designed binder) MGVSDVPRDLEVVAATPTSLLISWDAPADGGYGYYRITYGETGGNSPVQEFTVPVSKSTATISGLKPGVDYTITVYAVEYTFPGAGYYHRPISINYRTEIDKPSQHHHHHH",
    "Result": "4 nM"
  },
  {
    "Binder": "2382E04 (designed binder) MGVSDVPRDLEVVAATPTSLLISWDAPAGGGYGYYRITYGETGGNSPVQEFTVPVSKGTATISGLKPGVDYTITVYAVEFTFPGAGYYHRPISINYRTEIDKPSQHHHHHH",
    "Result": "3 nM"
  }
]
